Below is a list of entries, each paired with its recorded microsomal CLint value.
experiment: Human liver microsome intrinsic clearance; format: in vitro ADME; settings: human liver microsomes, NEU; read-out: HLM CLint (NEU)

Please review the following examples before continuing.
COc1ccn2c(-c3ccccc3)c(-c3ccccn3)nc2c1 [OSA_000860] = 224 µL/min/mg
CCN(CC)c1ccc(-c2c(-c3ccccn3)nc3ccccn23)cc1 [OSA_001011] = 159 µL/min/mg
COc1ccn2c(-c3cccc(Cl)n3)c(-c3ccccn3)nc2c1 [OSA_000857] = 124 µL/min/mg
CN(c1ccc(F)cc1)c1c(-c2ccccn2)nc2ccc(Br)cn12 [OSA_001003] = 61.6 µL/min/mg
COc1ccc2nc(-c3ccccn3)c(N(C)c3cc(F)cc(F)c3)n2c1 [OSA_000998] = 100 µL/min/mg
COc1ccnc(-c2nc3ccccn3c2N(C)c2ccc(F)cc2)c1 [OSA_001007] = 214 µL/min/mg
Cc1ccc(Nc2c(-c3ccccn3)nc3ccccn23)cc1 [OSA_000988] = 86.9 µL/min/mg
COc1ccn2c(-c3ccc(F)cc3)c(-c3ccccn3)nc2c1 [OSA_000858] = > 300 µL/min/mg

Okay, next one:
input: Read the entry c1ccc(-c2nc3ccccn3c2-c2ccc3sccc3c2)nc1 [OSA_000871] and write its reported microsomal CLint.
output: 105 µL/min/mg

* * *

Below is a list of entries, each paired with its recorded Sol 2.0 value.
experiment: Kinetic solubility estimation using nephelometry (Monash); type: physicochemical; conditions: 0.01 M HCl, approx pH 2.0

Please review the following examples before continuing.
c1ccc(-c2nc3n(c2-c2ccc4occc4c2)CCC3)nc1 = > 100 µg/mL
c1ccc(-c2nc3n(c2-c2ccc4sccc4c2)CCC3)nc1 = 50 to 100 µg/mL
c1ccc(-c2nc3n(c2-c2ccc4c(c2)OCO4)CCS3)nc1 = 25 to 50 µg/mL

Okay, next one:
input: Read the entry `c1ccc(-c2nc3ccccn3c2-c2ccc3c(c2)OCO3)nc1` and write its reported Sol 2.0.
output: > 100 µg/mL

* * *

system: Staphylococcus aureus NCTC 13373 (mecA-positive; methicillin-resistant); assay: In vitro antibacterial activity, MIC (UCL School of Pharmacy assay), MRSA; type: cell-based; settings: Staphylococcus aureus, UCL; read-out: MRSA MIC (UCL)
measurement_name: MIC

Please review the following examples before continuing.
Cn1ccnc1-c1nc2ccccn2c1Nc1ccc(F)cc1 = > 32 µg/mL
c1ccc(-c2nc3ccccc3n2-c2ccc(N3CCCCC3)cc2)nc1 = 16 µg/mL
N#Cc1ccc(-n2c(-c3ccccn3)nc3ccccc32)cc1 = > 32 µg/mL
c1ccc(-c2nc3ccccn3c2N2CCOCC2)nc1 = > 32 µg/mL
COc1ccn2cc(-c3ccccn3)nc2c1 = > 32 µg/mL
c1cnc(-c2nc3n(c2-c2ccc4occc4c2)CCC3)cn1 = > 32 µg/mL
CN1CCN(c2ccc(-c3c(-c4ccccn4)nc4ccccn34)cc2)CC1 = > 32 µg/mL
Cc1ccn2c(NC3CCCC3)c(-c3ccc(N(C)C)cc3)nc2c1 = > 32 µg/mL

input: Read the entry `CCN(c1ccc(F)cc1)c1c(-c2ccccn2)nc2ccccn12` and write its reported MIC.
output: 2 µg/mL

input: Read the entry `Fc1cccc(-c2c(-c3ccccn3)nc3n2CCC3)c1` and write its reported MIC.
output: > 32 µg/mL

input: Read the entry `c1ccn2c(NC3CCCC3)c(-c3nccs3)nc2c1` and write its reported MIC.
output: > 32 µg/mL

input: Read the entry `Fc1ccc(Nc2c(-c3ccccn3)nc3sccn23)cc1` and write its reported MIC.
output: 8 µg/mL

input: Read the entry `Fc1ccc(N(CC2CC2)c2c(-c3ccccn3)nc3ccccn23)cc1` and write its reported MIC.
output: 2 µg/mL

input: Read the entry `Cc1ccn2c(Nc3ccc(F)cc3)c(-c3ccc(N(C)C)cc3)nc2c1` and write its reported MIC.
output: > 32 µg/mL

* * *

Below is a list of entries, each paired with its recorded MIC value.
tested on: Staphylococcus aureus NCTC 13373 (mecA-positive; methicillin-resistant); experiment: In vitro antibacterial activity, MIC (UCL School of Pharmacy assay), MRSA; assay type: cell-based; conditions: Staphylococcus aureus, UCL; read-out: MRSA MIC (UCL)

Please review the following examples before continuing.
N#Cc1ccc(C(=O)Nc2c(-c3ccccn3)nc3ccccn23)cc1 = > 32 µg/mL
Cc1ccc(Nc2c(-c3ccccn3)nc3ccccn23)cc1 = 4 µg/mL
c1ncc(-c2nc3n(c2-c2ccc4occc4c2)CCC3)cn1 = > 32 µg/mL
COc1ccnc(-c2nc3ccccn3c2N(C)c2ccc(F)cc2)c1 = 8 µg/mL
Cc1ccc(-c2c(-c3ccccn3)nc3cc(C(N)=O)ccn23)cc1 = > 32 µg/mL

input: Read the entry `COc1ccn2c(Nc3cccc(F)c3)c(-c3cscn3)nc2c1` and write its reported MIC.
output: > 32 µg/mL

input: Read the entry `c1ccc(-c2nc3n(c2-c2ccc4occc4c2)CCC3)nc1` and write its reported MIC.
output: 2 µg/mL

input: Read the entry `Cc1cccc(-c2c(-c3ccccn3)nc3n2CCC3)c1` and write its reported MIC.
output: 8 µg/mL

input: Read the entry C[S+]([O-])c1ccc(-c2c(-c3ccccn3)nc3n2CCC3)cc1 (stereo not shown) and write its reported MIC.
output: > 32 µg/mL

input: Read the entry `Fc1ccc(Nc2c(-c3ccccn3)nc3ccccn23)cc1` and write its reported MIC.
output: 8 µg/mL

* * *

tested on: S. aureus ATCC 25923 (methicillin-susceptible); experiment: In vitro antibacterial activity, MIC (UCL), MSSA; assay type: cell-based, Staphylococcus aureus; conditions: Staphylococcus aureus; UCL assay; read-out: MSSA MIC (ug/mL) (UCL)
measurement_name: MIC (µg/mL)
Could you give me the number in µg/mL? Just the number is fine.

CC(C)CN(c1ccc(F)cc1)c1c(-c2ccccn2)nc2cc(F)ccn12 = 4

Okay, next one:
input: Read the entry `CC(C)CN(c1ccc(F)cc1)c1c(-c2ccccn2)nc2ncccn12` and write its reported MIC.
output: 8

* * *

experiment: HEK293 toxicity, 96-well dose-response (UCL; MTT or resazurin, with or without recovery); format: cell-based, human; conditions: human, HEK293 cells; read-out: HEK293 CC50
Below is a list of entries, each paired with its recorded CC50 at 24 h value.
Could you give me the number in µg/mL? Just the number is fine.

Please review the following examples before continuing.
Cc1ccc(-c2c(-c3ccccn3)nc3n2CCC3)cc1 [OSA_000865] = 2.1
c1ccc(-c2nc3ccccn3c2-c2ccc3sccc3c2)nc1 [OSA_000871] = 5.5
c1ccc(-c2nc3n(c2-c2ccc4occc4c2)CCC3)cc1 [OSA_000869] = 13.7

input: Read the entry c1ccc(-c2c(-c3ccccn3)nc3n2CCC3)cc1 [OSA_000870] and write its reported CC50 at 24 h.
output: 3.6

* * *

test: LogD7.4 (Chrom Log D); assay type: physicochemical; conditions: pH 7.4; read-out: LogD7.4
Below is a list of entries, each paired with its recorded chromatographic logD value.
API doc: respond with a numeric literal and nothing else, no unit.

Please review the following examples before continuing.
Fc1ccc(-c2c(-c3ccccn3)nc3ccccn23)cc1 = 3
Cc1ccc(-c2c(-c3ccccn3)nc3ccccn23)cc1 = 3.3

Okay, next one:
input: Read the entry `Cc1ccc(-c2c(-c3ccccn3)nc3cc(Cl)ccn23)cc1` and write its reported chromatographic logD.
output: 3.1

* * *

experiment: Distribution coefficient estimation using chromatography, gLogD (Monash); format: physicochemical; conditions: gradient HPLC retention against standard compounds, pH 7.4
Below is a list of entries, each paired with its recorded chromatographic logD value.
API doc: respond with a numeric literal and nothing else, no unit.

Please review the following examples before continuing.
c1ccc(-c2nc3ccccn3c2-c2ccc3c(c2)OCO3)nc1 = 1.8
c1ccc(-c2nc3n(c2-c2ccc4c(c2)OCO4)CCC3)nc1 = 1.5
c1ccc(-c2nc3n(c2-c2ccc4sccc4c2)CCC3)nc1 = 2.3

Okay, next one:
input: Read the entry `c1ccc(-c2nc3n(c2-c2ccc4c(c2)OCO4)CCS3)nc1` and write its reported chromatographic logD.
output: 1.6

* * *

system: Enterococcus faecalis ATCC 51299 (vanA-positive; vancomycin-resistant); test: In vitro antibacterial activity, MIC (UCL), VRE; format: cell-based
Below is a list of entries, each paired with its recorded VRE MIC value.
Could you give me the number in µg/mL? Just the number is fine.

Fc1ccc(Nc2c(-c3ccccn3)nc3sccn23)cc1 = 8

input: Read the entry `Clc1ccn2c(-c3ccc4occc4c3)c(-c3ccccn3)nc2c1` and write its reported VRE MIC.
output: 16

input: Read the entry `CCCN(c1ccc(F)cc1)c1c(-c2ccccn2)nc2ccccn12` and write its reported VRE MIC.
output: 4

input: Read the entry `COc1ccn2c(-c3ccccc3)c(-c3ccccn3)nc2c1` and write its reported VRE MIC.
output: 32

input: Read the entry `COc1ccn2c(Nc3ccccc3F)c(-c3ccccn3)nc2c1` and write its reported VRE MIC.
output: 16

input: Read the entry `Cc1ccc2nc(-c3ccccn3)c(NCc3ccccc3)n2c1` and write its reported VRE MIC.
output: 32

input: Read the entry `COc1ccc2nc(-c3ccccn3)c(N(C)c3cc(F)cc(F)c3)n2c1` and write its reported VRE MIC.
output: 32

input: Read the entry `c1ccc(-c2nc3ccccc3n2-c2ccc(N3CCCCC3)cc2)nc1` and write its reported VRE MIC.
output: 32

Value source: paper PMC10714399
